assay-method-text: Area under the curve determinations of plasma levels in rats (rrAUC)
Format: in vivo
test-settings: rapid rat AUC of the drug (parent) in plasma; oral 10 mg/kg, fasted rats, blood 0.5-6 h post-dosing
measure: PK (rrAUC) parent (nM·h)
State just the number; it will be interpreted in nM·h.

[[record]]
compound = "COc1ccc2c(c1)C(=O)N(C[C@@]1(c3cc4cnccc4o3)NC(=O)N(COC(=O)c3cccnc3)C1=O)C2 [Compound 67]"
numeric_result = 3448

[[record]]
compound = "COc1ccc2c(c1)C(=O)N(C[C@@]1(c3cc4cnccc4o3)NC(=O)N(CN(C)C(=O)C(C)(C)C)C1=O)C2 [Compound 76.2]"
numeric_result = 310


Any idea what its PK (rrAUC) parent is? The compound is COc1ccc2c(c1)C(=O)N(C[C@@]1(c3cc4nc(N5CCNCC5)ccc4o3)NC(=O)N(COC(=O)C(C)(C)C)C1=O)C2 [Compound 28]
0

Lookup COc1ccc2c(c1)C(=O)N(C[C@]1(c3cc4ncccc4o3)C(=O)N(COC(=O)C(C)(C)C)C(=O)N1COC(=O)C(C)(C)C)C2 [Compound 80]
3092

Also COc1ccc2c(c1F)C(=O)N(C[C@@]1(c3cc4cc5c(c(F)c4o3)C(=O)NC5)NC(=O)N(COC(=O)C(C)(C)C)C1=O)C2 [Compound 7] ?
1898

====

assay-method-text: Area under the curve determinations of plasma levels in rats (rrAUC)
Type: in vivo
test-settings: rapid rat AUC of the drug (parent) in plasma; oral 10 mg/kg, fasted rats, blood 0.5-6 h post-dosing
Method: To gain insight into the pharmacokinetic properties of the compounds of formula (I), plasma levels of the compounds in rats were determined according to the protocol described in Korfmacher, W. A,; Cox, K. A.; Ng, K. J.; Veals, J.; Hsieh, Y.; Wainhaus, S.; Broske, L; Prelusky, D.; Nomeir, A.; White, R. E. Rapid Commun. Mass Spectrorn, 2001, 15, 335. […] The parent ion of each test compound was used to identify and quantitate the compounds in plasma.
measure: PK (rrAUC) parent

Recorded PK (rrAUC) parent, per entry:
[[record]]
compound = "COc1ccc2c(c1)C(=O)N(C[C@@]1(c3cc4cnccc4o3)NC(=O)N(C(C)OC(=O)OC3CCOCC3)C1=O)C2 (stereo partly drawn)"
result = "0 nM·h"

[[record]]
compound = "COc1ccc2c(c1F)C(=O)N(C[C@@]1(c3cc4cnc(C)cc4o3)NC(=O)N(COC(=O)C(C)(C)C)C1=O)C2"
result = "45,213 nM · h"


Entry under review: COc1ccc2c(c1)C(=O)N(C[C@@]1(c3cc4cnccc4o3)NC(=O)N(COC(=O)N(C)C)C1=O)C2 . Reported PK (rrAUC) parent?
13539 nM·h

Do the same for COc1ccc2c(c1F)C(=O)N(C[C@@]1(c3cc4cc([C@@]5(C)NC(=O)NC5=O)c(F)cc4o3)NC(=O)N(COC(=O)C(C)(C)C)C1=O)C2 please
335 nM·h

Next entry: COc1ccc2c(c1F)C(=O)N(C[C@@]1(c3cc4c(C)nccc4o3)NC(=O)N(COC(=O)C(C)(C)C)C1=O)C2
1827 nM·h

Again, but for COc1ccc2c(c1)C(=O)N(C[C@@]1(c3cc4cnccc4o3)NC(=O)N(COC(=O)OC3CCN(C)CC3)C1=O)C2
13539 nM·h

====

assay-method-text: Area under the curve determinations of plasma levels in rats (rrAUC)
Type: in vivo
test-settings: rapid rat AUC of the drug (parent) in plasma; oral 10 mg/kg, fasted rats, blood 0.5-6 h post-dosing
Measured PK (rrAUC) parent, listed per entry for reference.
Reply with just the number (in µM·h).

Consider the reported PK (rrAUC) parent for these compounds:
[[record]]
line_notation = "COc1ccc2c(c1F)C(=O)N(C[C@@]1(c3cc4c(OC(C)=O)nccc4o3)NC(=O)N(COC(=O)C(C)(C)C)C1=O)C2"
unit_name = "µM·h"
numeric_result = 0.823

[[record]]
line_notation = "COc1ccc2c(c1)C(=O)N(C[C@]1(c3cc4cnccc4o3)C(=O)N(COC(=O)c3ccccc3)C(=O)N1C(=O)c1ccccc1)C2"
unit_name = "µM·h"
numeric_result = 0.126

[[record]]
line_notation = "COc1ccc2c(c1F)C(=O)N(C[C@@]1(c3cc4nc(N5CCN(C)CC5)ccc4o3)NC(=O)N(COC(=O)C(C)(C)C)C1=O)C2"
unit_name = "µM·h"
numeric_result = 8.621


Here's the next entry for you.
What value of measured PK (rrAUC) parent is listed for COc1ccc2c(c1)C(=O)N(C[C@@]1(C#Cc3ccc4c(=O)[nH][nH]c4c3)NC(=O)N(COC(=O)C(C)(C)C)C1=O)C2 ?
0

====

assay-method-text: Area under the curve determinations of plasma levels in rats (rrAUC)
Assay type: in vivo
test-settings: rapid rat AUC of the drug (parent) in plasma; oral 10 mg/kg, fasted rats, blood 0.5-6 h post-dosing
measure: PK (rrAUC) parent (µM·h)
Write the value in µM·h as a bare number.

[[record]]
compound = "CCN1C(=O)N[C@@](CN2Cc3ccc(OC)cc3C2=O)(c2cc3ncccc3o2)C1=O [Compound 46]"
measure = "PK (rrAUC) parent"
unit_name = "µM·h"
numeric_result = 0.868

[[record]]
compound = "COc1ccc2c(c1F)C(=O)N(C[C@@]1(c3cc4cc5c(c(F)c4o3)C(=O)NC5)NC(=O)N(COC(=O)c3ccccc3)C1=O)C2 [Compound 64]"
measure = "PK (rrAUC) parent"
unit_name = "µM·h"
numeric_result = 5.393

[[record]]
compound = "CCOC(=O)[C@H](C)OC(=O)OCN1C(=O)N[C@@](CN2Cc3ccc(OC)cc3C2=O)(c2cc3cnccc3o2)C1=O [Compound 63.2]"
measure = "PK (rrAUC) parent"
unit_name = "µM·h"
numeric_result = 0

[[record]]
compound = "COc1ccc2c(c1)C(=O)N(C[C@@]1(C#Cc3ccc(N4CCNCC4)cc3)NC(=O)N(COC(=O)C(C)(C)C)C1=O)C2 [Compound 25]"
measure = "PK (rrAUC) parent"
unit_name = "µM·h"
numeric_result = 0


Give its PK (rrAUC) parent value. Item: COc1ccc2c(c1)C(=O)N(C[C@@]1(c3cc4cnccc4o3)NC(=O)N(C(C)OC(=O)OC3COCOC3)C1=O)C2 (stereo partly shown) [Compound 60.1]
0

Okay, and CCN1CCN(c2ccc3oc([C@]4(CN5Cc6ccc(OC)cc6C5=O)NC(=O)N(COC(=O)C(C)(C)C)C4=O)cc3n2)CC1 [Compound 24] ?
0.655

// query: COc1ccc2c(c1)C(=O)N(C[C@@]1(c3cc4nc(N5C(=O)CCC5C)ccc4o3)NC(=O)N(COC(=O)C(C)(C)C)C1=O)C2 (stereo partly shown) [Compound 10]
1.202

Next up: COc1ccc2c(c1)C(=O)N(C[C@@]1(c3cc4cnccc4o3)NC(=O)N(COC(=O)OCCN(C)C)C1=O)C2 [Compound 63.4]
1.604

Field entry: COc1ccc2c(c1)C(=O)N(C[C@]1(c3cc4cnccc4o3)C(=O)N(C(C)OC(=O)OC3COCOC3)C(=O)N1C(=O)OC1COCOC1)C2 (stereo partly shown) [Compound 88]
0

Another compound to look at: COCCOCCOCCN1C(=O)N[C@@](CN2Cc3ccc(OC)cc3C2=O)(c2cc3ncccc3o2)C1=O [Compound 47]
0.019

Note, next up: COCN1C(=O)N[C@@](CN2Cc3ccc(OC)cc3C2=O)(c2cc3ncccc3o2)C1=O [Compound 58]
2.125

Next up: COc1ccc2c(c1F)C(=O)N(C[C@@]1(C#Cc3cncc(NC(=O)C4CCN(C)CC4)c3)NC(=O)N(COC(=O)C(C)(C)C)C1=O)C2 [Compound 36]
0

Note, next up: COc1ccc2c(c1)C(=O)N(C[C@@]1(C#Cc3ccc(-c4nc(-c5cnn(C)c5)ccc4OC(=O)C(C)(C)C)cc3)NC(=O)N(COC(=O)C(C)(C)C)C1=O)C2 [Compound 43]
0

Another: COc1ccc2c(c1)C(=O)N(C[C@@]1(c3cc4cnccc4o3)NC(=O)N(COC(=O)OC(C)C)C1=O)C2 [Compound 62]
0

Likewise for COc1ccc2c(c1F)C(=O)N(C[C@@]1(c3cc4cc5c(c(F)c4o3)C(=O)NC5)NC(=O)N(COCc3ccccc3)C1=O)C2 [Compound 57] ?
2.244

And for COc1ccc2c(c1)C(=O)N(C[C@@]1(c3cc4cnccc4o3)NC(=O)N(COC(=O)OC3CCOCC3)C1=O)C2 [Compound 59] ?
13.539
